# assayMethodText: in vivo
# Format: in vivo, female Wistar rats
# setupConditions: in vivo; ratio of ED73 po. to ED73 iv., rat aconitine; read-out: Q1 (ED73 po. /ED73 iv.), absorption ratio
So basically: is selectivity ratio under 20? Then yes. Not under? Then no.

The examples below pair each entry with its known result.
[in] Threshold test, selectivity ratio < 20: CCOC(=O)Nc1ccc2c(c1)N(C(=O)C(C)N)c1ccccc1CC2 (centres unmarked) [compound 13]
[out] no

[in] Threshold test, selectivity ratio < 20: CCOC(=O)Nc1ccc2c(c1)N(C(=O)C(C)N(CC)CC)c1ccccc1CC2 (centres unmarked) [Test No. 2]
[out] yes

[in] Threshold test, selectivity ratio < 20: CCNC(C)C(=O)N1c2ccccc2CCc2ccc(NC(=O)OC(C)C)cc21 (centres unmarked) [compound 7]
[out] no

[in] Threshold test, selectivity ratio < 20: CCCNC(C)C(=O)N1c2ccccc2CCc2ccc(NC(=O)OCC)cc21 (centres unmarked) [compound 12]
[out] no

[in] Threshold test, selectivity ratio < 20: CNC(C)C(=O)N1c2ccccc2CCc2ccc(NC(=O)OC)cc21 (centres unmarked) [compound 8]
[out] yes

Next:
[in] Threshold test, selectivity ratio < 20: CCOC(=O)Nc1ccc2c(c1)N(C(=O)CCN1CCOCC1)c1ccccc1S2 [Moracizin, reference compound]
[out] no

[in] Threshold test, selectivity ratio < 20: CCOC(=O)Nc1ccc2c(c1)N(C(=O)C(C)NC)c1ccccc1C=C2 (centres unmarked) [compound 10]
[out] yes

###

# Test system: Aconitine (rat)
# assayMethodText: animal or person
# Format: in vivo, female Wistar rats
# setupConditions: Rattus norvegicus, iv, read-out: ED73 iv.
We begin with a simple list: items and their reported ED73.
Write it as a number; the unit mg/kg goes unstated.

Please review the entries below; each comes with its answer.
[in] // Input: CNC(C)C(=O)N1c2ccccc2CCc2ccc(NC(=O)OC)cc21 (stereo not shown) . Output its ED73 only.
[out] 0.86

[in] // Input: CCOC(=O)Nc1ccc2c(c1)N(C(=O)C(C)N(C)C)c1ccccc1CC2 (stereo not shown) . Output its ED73 only.
[out] 2.4

[in] // Input: CCOC(=O)Nc1ccc2c(c1)N(C(=O)CN(C)C)c1ccccc1CC2 [Bonnecor, reference compound] . Output its ED73 only.
[out] 0.28

[in] // Input: CCOC(=O)Nc1ccc2c(c1)N(C(=O)C(C)NC)c1ccccc1C=C2 (stereo not shown) . Output its ED73 only.
[out] 0.75

[in] // Input: CCOC(=O)Nc1ccc2c(c1)N(C(=O)C(C)NC)c1ccccc1CC2 (stereo not shown) . Output its ED73 only.
[out] 0.12

[in] // Input: CCNC(C)C(=O)N1c2ccccc2C=Cc2ccc(NC(=O)OCC)cc21 (stereo not shown) . Output its ED73 only.
[out] 0.8

Next:
[in] // Input: CCOC(=O)Nc1ccc2c(c1)N(C(=O)C(C)N)c1ccccc1CC2 (stereo not shown) . Output its ED73 only.
[out] 0.31

[in] // Input: Cc1cccc(C)c1OCC(C)N (stereo not shown) [Mexiletin, reference compound] . Output its ED73 only.
[out] 15

[in] // Input: CCOC(=O)Nc1ccc2c(c1)N(C(=O)C(C)N(CC)CC)c1ccccc1CC2 (stereo not shown) . Output its ED73 only.
[out] 1.3

[in] // Input: CCOC(=O)Nc1ccc2c(c1)N(C(=O)C(C)N1CCOCC1)c1ccccc1CC2 (stereo not shown) . Output its ED73 only.
[out] 47

[in] // Input: CCNC(C)C(=O)N1c2ccccc2CCc2ccc(NC(=O)OCC)cc21.Cl (stereo not shown) . Output its ED73 only.
[out] 0.16

[in] // Input: CCNC(C)C(=O)N1c2ccccc2CCc2ccc(NC(=O)OC(C)C)cc21 (stereo not shown) . Output its ED73 only.
[out] 0.33

[in] // Input: CCCNC(C)C(=O)N1c2ccccc2CCc2ccc(NC(=O)OCC)cc21 (stereo not shown) . Output its ED73 only.
[out] 0.16

###

# assayMethodText: in vivo
# Format: in vivo, female Wistar rats
# setupConditions: in vivo; ratio of ED73 po. to ED73 iv., rat aconitine; read-out: Q1 (ED73 po. /ED73 iv.), absorption ratio
Give y when the value for selectivity ratio is at least 20. Give n when it is less.

The examples below pair each entry with its known result.
[in] Form field: selectivity ratio at least 20? Entry: CCNC(C)C(=O)N1c2ccccc2CCc2ccc(NC(=O)OCC)cc21.Cl (centres unmarked) [Test No. 5, hydrochloride]
[out] y

[in] Form field: selectivity ratio at least 20? Entry: CCOC(=O)Nc1ccc2c(c1)N(C(=O)C(C)N(C)C)c1ccccc1CC2 (centres unmarked)
[out] n

[in] Form field: selectivity ratio at least 20? Entry: CCOC(=O)Nc1ccc2c(c1)N(C(=O)C(C)NC)c1ccccc1CC2 (centres unmarked)
[out] y

[in] Form field: selectivity ratio at least 20? Entry: CCNC(C)C(=O)N1c2ccccc2C=Cc2ccc(NC(=O)OCC)cc21 (centres unmarked)
[out] n

Alright, here's another compound for you.
[in] Form field: selectivity ratio at least 20? Entry: CNC(C)C(=O)N1c2ccccc2CCc2ccc(NC(=O)OC(C)C)cc21 (centres unmarked)
[out] y

###

# assayMethodText: in vivo
# Design: species or system male or female Wistar rats
# setupConditions: Wistar rat, iv. in tail vein, p=0.05 confidence interval in parentheses
We begin with a simple list: items and their reported LD50.
Write it as a number; the unit mg/kg goes unstated.

Please review the entries below; each comes with its answer.
[in] // Input: CCNC(C)C(=O)N1c2ccccc2CCc2ccc(NC(=O)OC(C)C)cc21 (stereo not shown) [compound 7] . Output its LD50 only.
[out] 10

[in] // Input: CCCNC(C)C(=O)N1c2ccccc2CCc2ccc(NC(=O)OCC)cc21 (stereo not shown) [compound 12] . Output its LD50 only.
[out] 2.5

[in] // Input: CNC(C)C(=O)N1c2ccccc2CCc2ccc(NC(=O)OC)cc21 (stereo not shown) [compound 8] . Output its LD50 only.
[out] 24

Next:
[in] // Input: COC(=O)Nc1ccc2c(c1)N(C(=O)C(C)NCCO)c1ccccc1CC2 (stereo not shown) [compound 9] . Output its LD50 only.
[out] 55

[in] // Input: CNC(C)C(=O)N1c2ccccc2CCc2ccc(NC(=O)OC(C)C)cc21 (stereo not shown) [compound 6] . Output its LD50 only.
[out] 21

[in] // Input: CCNC(C)C(=O)N1c2ccccc2C=Cc2ccc(NC(=O)OCC)cc21 (stereo not shown) [compound 11] . Output its LD50 only.
[out] 14

###

We begin with a simple list: items and their reported selectivity ratio.
# assayMethodText: in vivo
# Format: in vivo, female Wistar rats
# setupConditions: in vivo; ratio of LD50 iv. to ED73 iv., rat; read-out: Q2 (LD50 iv. /ED73 iv.), therapeutic breadth
Respond using a number only.

[in] // Input: CCOC(=O)Nc1ccc2c(c1)N(C(=O)CN(C)C)c1ccccc1CC2 [Bonnecor, reference compound] . Output its selectivity ratio only.
[out] 39

Next:
[in] // Input: CCNC(C)C(=O)N1c2ccccc2C=Cc2ccc(NC(=O)OCC)cc21 (stereo not drawn) . Output its selectivity ratio only.
[out] 18

[in] // Input: CCOC(=O)Nc1ccc2c(c1)N(C(=O)C(C)NC)c1ccccc1CC2 (stereo not drawn) . Output its selectivity ratio only.
[out] 100

[in] // Input: CCOC(=O)Nc1ccc2c(c1)N(C(=O)C(C)N)c1ccccc1CC2 (stereo not drawn) . Output its selectivity ratio only.
[out] 68

[in] // Input: CCNC(C)C(=O)N1c2ccccc2CCc2ccc(NC(=O)OCC)cc21.Cl (stereo not drawn) [Test No. 5, hydrochloride] . Output its selectivity ratio only.
[out] 39

[in] // Input: CCCNC(C)C(=O)N1c2ccccc2CCc2ccc(NC(=O)OCC)cc21 (stereo not drawn) . Output its selectivity ratio only.
[out] 16

###

# Tested on: Aconitine (rat)
# assayMethodText: animal or person
# Assay type: in vivo, female Wistar rats
# setupConditions: Rattus norvegicus, iv, read-out: ED73 iv.
We begin with a simple list: items and their reported ED73.
Write it as a number; the unit mg/kg goes unstated.

[in] // Input: CNC(C)C(=O)N1c2ccccc2CCc2ccc(NC(=O)OC(C)C)cc21 (stereo not drawn) . Output its ED73 only.
[out] 0.55

[in] // Input: COC(=O)Nc1ccc2c(c1)N(C(=O)C(C)NCCO)c1ccccc1CC2 (stereo not drawn) . Output its ED73 only.
[out] 4

Shifting focus to the molecule that follows.
[in] // Input: CCOC(=O)Nc1ccc2c(c1)N(C(=O)CCN1CCOCC1)c1ccccc1S2 [Moracizin, reference compound] . Output its ED73 only.
[out] 1.1

###

# assayMethodText: in vivo
# Set-up: species or system male or female Wistar rats
# setupConditions: Wistar rat, iv. in tail vein, p=0.05 confidence interval in parentheses
We begin with a simple list: items and their reported LD50.
Write it as a number; the unit mg/kg goes unstated.

Please review the entries below; each comes with its answer.
[in] // Input: CCOC(=O)Nc1ccc2c(c1)N(C(=O)C(C)N(C)C)c1ccccc1CC2 (stereo not shown) . Output its LD50 only.
[out] 20

[in] // Input: CCOC(=O)Nc1ccc2c(c1)N(C(=O)C(C)N)c1ccccc1CC2 (stereo not shown) . Output its LD50 only.
[out] 21

[in] // Input: CCOC(=O)Nc1ccc2c(c1)N(C(=O)C(C)NC)c1ccccc1C=C2 (stereo not shown) . Output its LD50 only.
[out] 14

Next:
[in] // Input: CCOC(=O)Nc1ccc2c(c1)N(C(=O)C(C)N(CC)CC)c1ccccc1CC2 (stereo not shown) . Output its LD50 only.
[out] 12

[in] // Input: CCNC(C)C(=O)N1c2ccccc2CCc2ccc(NC(=O)OCC)cc21.Cl (stereo not shown) . Output its LD50 only.
[out] 9.3

[in] // Input: CCOC(=O)Nc1ccc2c(c1)N(C(=O)C(C)NC)c1ccccc1CC2 (stereo not shown) . Output its LD50 only.
[out] 12

Measured values drawn from patent US5192760A for this set.
